Test system: KRAS-mutant PDC multicell tumor spheroid viability;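 also: viability read after seven days of drug exposure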
assay.notes: Anticancer human tumor 521955-158-R2-J5-PDC patient-derived pancreatic carcinoma cell line growth inhibition [KRAS2]
particulars: curve of first compound; second compound 0.1 µM
Source text: Multicellular complex tumor spheroid response to RAS pathway inhibitors in combination with a targeted agents in patient-derived cell lines with oncogenic KRAS variants from multiple cancer types A high-throughput screen of multi-cell type tumor spheroids was designed to identify active combinations of targeted small molecules and KRAS pathway inhibitors. […] Compounds. […] If the clinical Cmax for an agent had not been determined, the highest concentration tested was 10 microM. […]
pIC50: −log10 of the molar value.
result.type: pIC50

Field: example entries. Status: answers known.
CCN1CCN(Cc2ccc(Nc3ncc(F)c(-c4cc(F)c5nc(C)n(C(C)C)c5c4)n3)nc2)CC1 + COc1cc2nc(C)nc(NC(C)c3cc(N)cc(C(F)(F)F)c3)c2cc1OC1CCOC1: < 6.00
CCN1CCN(Cc2ccc(Nc3ncc(F)c(-c4cc(F)c5nc(C)n(C(C)C)c5c4)n3)nc2)CC1 + C=CC(=O)N1CCN(c2nc(OCC3CCCN3C)nc3c2CCN(c2cccc4cccc(C)c24)C3)CC1CC#N: < 6.00

Then there is this molecule:
Problem: Would you kindly share the measured pIC50 for CC(=O)Nc1cccc(-n2c(=O)n(C3CC3)c(=O)c3c(Nc4ccc(I)cc4F)n(C)c(=O)c(C)c32)c1 + COc1cc2nc(C)nc(NC(C)c3cc(N)cc(C(F)(F)F)c3)c2cc1OC1CCOC1 ?
Solution: 9.59
